Data provenance is ChEMBL document CHEMBL1201862.

The entries below come with measured AC50 values attached.
Molecular target: UniProt P33261
Sequence (P33261 whole entry): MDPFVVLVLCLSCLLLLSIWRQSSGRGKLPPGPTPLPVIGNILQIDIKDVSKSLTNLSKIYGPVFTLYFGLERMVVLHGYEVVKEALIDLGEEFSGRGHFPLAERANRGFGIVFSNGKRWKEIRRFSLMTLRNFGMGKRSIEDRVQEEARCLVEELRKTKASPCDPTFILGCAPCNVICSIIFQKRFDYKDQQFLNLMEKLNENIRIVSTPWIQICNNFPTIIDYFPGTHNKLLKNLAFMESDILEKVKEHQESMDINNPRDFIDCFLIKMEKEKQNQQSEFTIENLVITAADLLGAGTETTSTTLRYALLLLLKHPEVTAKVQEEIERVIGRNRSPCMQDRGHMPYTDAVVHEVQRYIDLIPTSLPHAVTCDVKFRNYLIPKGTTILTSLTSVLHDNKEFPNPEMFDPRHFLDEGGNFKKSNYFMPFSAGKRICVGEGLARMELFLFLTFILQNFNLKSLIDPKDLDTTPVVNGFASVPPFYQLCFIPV
Assay: Cytochrome panel assay with activity outcomes. Panel member name: p450-cyp2c19 Compounds with AC50 equal or less than 10 uM are considered active
Type: functional
Conditions: read-out: AC50
measured.parameter: AC50

compound	measured.parameter	result
O=C(c1cc(C(F)(F)F)cc(C(F)(F)F)c1)N1CCC2(CCCN(c3ncccn3)C2)CC1	AC50	20 µM (inconclusive)
Cc1ccc(/C=N/n2c(S)nnc2COc2ccccc2)s1	AC50	2.24 µM (inconclusive)
CCC(O)CNc1nc(-n2nc(C)cc2C)nc2sc3c(c12)CC(C)(C)OC3 (stereo not drawn)	AC50	20 µM (inconclusive)
CN1CCN(c2ncnc3ccc(-c4ccc5c(c4)OCO5)cc23)CC1	AC50	39.8 µM (inconclusive)
CC1Cc2ccccc2N1C(=O)c1cc2c(=O)n3ccccc3nc2n1C (stereo not drawn)	AC50	7.08 µM (inconclusive)
O=C(c1cc(-c2ccncc2)nc2ccccc12)N1CCN(c2ccc(N3CCOCC3)nn2)CC1	AC50	15.8 µM (inconclusive)
O=C(O)c1cc(-c2ccc(-c3ccccc3)cc2)nc2cc3ccccc3cc12	AC50	3.98 µM (inconclusive)
CN(C)C(=O)c1ccc(-c2nccc(NCc3cccs3)n2)cc1	AC50	20 µM (inconclusive)
O=C1CC(N(O)C2CC(=O)N(Cc3ccccc3)C2=O)C(=O)N1Cc1ccccc1 (stereo not drawn)	AC50	2 µM (inconclusive)
CC(=O)Oc1cc(C(F)(F)F)ccc1C(=O)O	AC50	3.98 µM (inconclusive)
O=C(NC1CCCCC1)C(c1ccccc1)N1CCOCC1 (stereo not drawn)	AC50	20 µM (inconclusive)
N#C/C(=C\c1c[nH]c2ccccc12)C(=O)c1ccc(O)c(O)c1	AC50	31.6 µM (inconclusive)
O=C1C[C@@H](c2ccc(O)cc2)Oc2cc(O)cc(O)c21	AC50	3.98 µM (inconclusive)
